assay: Displacement of [3H]-(+)-MK801 from PCP binding site of NMDA receptor from pig brain cortex after 150 mins by scintillation counting; set-up: species or system Sus scrofa
Readout name: Ki (nM)
Expressed in nM, but write only the number.

Query: Given FC1(F)CCNC(C2COC(c3ccccc3)(c3ccccc3)O2)C1 (racemic) , state its recorded Ki.
Reply: 81

Query: Lookup FC1CCNC(C2COC(c3ccccc3)(c3ccccc3)O2)C1 (racemic; form 2)
Reply: 27

Query: What do you get for O=C1CCNC(C2COC(c3ccccc3)(c3ccccc3)O2)C1 (racemic) ?
Reply: 470

Query: Lookup CC12CC3CC(C)(C1)CC(N)(C3)C2 [MEMANTINE]
Reply: 1200

Query: Here is the next molecule: OC1CCNC(C2COC(c3ccccc3)(c3ccccc3)O2)C1 (racemic)
Reply: 44

====

molecular target: Sigma non-opioid intracellular receptor 1 (Cavia porcellus) (UniProt Q60492); details: at 1 µM
Sequence (Q60492 whole entry): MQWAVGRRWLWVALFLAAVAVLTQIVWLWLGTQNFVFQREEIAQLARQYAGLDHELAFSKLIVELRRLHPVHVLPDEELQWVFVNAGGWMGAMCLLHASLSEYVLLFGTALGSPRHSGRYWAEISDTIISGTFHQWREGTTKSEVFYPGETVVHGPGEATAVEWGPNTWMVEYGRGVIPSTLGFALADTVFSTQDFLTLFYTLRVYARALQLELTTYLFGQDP
Description: Displacement of [3H](+)-pentazocine from sigma1 opioid receptor from guinea pig brain cortex at 1 uM after 150 mins by scintillation counting
Readout name: inhibition (%)
Express it in %; write the number only.

Query: Endpoint output: inhibition of FC1CCNC(C2COC(c3ccccc3)(c3ccccc3)O2)C1 (racemic; form 1) . Value?
Reply: 5

Query: Next entry: FC1CCNC(C2COC(c3ccccc3)(c3ccccc3)O2)C1 (racemic; form 2)
Reply: 5

Query: Next: O=C1CCNC(C2COC(c3ccccc3)(c3ccccc3)O2)C1 (racemic)
Reply: 0

Query: # iterate: FC1(F)CCNC(C2COC(c3ccccc3)(c3ccccc3)O2)C1 (racemic)
Reply: 0
